# Test system: HepG2 hepatocarcinoma cells
# assay protocol: Resazurin reduction assay
# Format: cell-based
# measurement context: Homo sapiens, HepG2, 72 h
recorded metric: IC50 (µM)

Task: Field: IC50 (HepG2 hepatocarcinoma cells). Entry: `O=c1cc(-c2ccc(O)c(O)c2)oc2cc(O)cc(O)c12`
Result: 29

[1] COc1cccc2c1C(=O)c1c(O)c3c(c(O)c1C2=O)C[C@@](O)(C(=O)CO)C[C@@H]3O[C@H]1C[C@H](N)[C@H](O)[C@H](C)O1 [Doxorubicin, reference compound]
[2] COc1cc(-c2cc(=O)c3c(O)cc(O[C@@H]4O[C@H](CO)[C@@H](O)[C@H](O)[C@H]4O)cc3o2)ccc1O [Compound 3, chrysoeriol-7-O-β-D-glucopyranoside]
Task: Which of the two gives a bigger number for IC50: 1 or 2 ? # reply format: chosen label
Result: 2
